# Condition Label: PAMPA, 500 uM
Starred links: 1 amine or outer side, 2 acyl side, 3 side chain; linkers in the order of their positions; H or OH if unused. Non-standard residues stand in square brackets, D forms with d. Residues, ends and D or L forms follow the SMILES beside them. *: point of attachment. X2 = CCCCC[C@H](O*)C(=O)OCc1ccccc1; X1 = CCCCC[C@H](O[*:1])C(=O)[*:2]; Ahp(2) = CCCCC[C@H](N)C(=O)O; dNMeA = CN[C@H](C)C(=O)O; Boc = CC(C)(C)OC(=O)*
So I've got a bunch of molecules here, and I need their LogPapp values.
# respond with the number and nothing more

Entry CCCCC[C@H](OC(=O)[C@@H](C)N(C)C(=O)[C@H](CCCCC)OC(=O)[C@@H](C)N(C)C(=O)[C@H](CCCCC)OC(=O)[C@@H](C)N(C)C(=O)OC(C)(C)C)C(=O)OCc1ccccc1 , LogPapp reported as -5.45

Entry CCCCC[C@H](NC(=O)[C@@H](C)N(C)C(=O)OC(C)(C)C)C(=O)N(C)[C@H](C)C(=O)O[C@@H](CCCCC)C(=O)N(C)[C@H](C)C(=O)O[C@@H](CCCCC)C(=O)N(C)[C@H](C)C(=O)O[C@@H](CCCCC)C(=O)OCc1ccccc1 [Compound L2.1] (Boc-[dNMeA][Ahp(2)][dNMeA][X1][dNMeA][X1][dNMeA]-X2) , LogPapp reported as -5.40

Entry CCCCC[C@H](NC(=O)[C@@H](C)N(C)C(=O)OC(C)(C)C)C(=O)N(C)[C@H](C)C(=O)N[C@H](CCCCC)C(=O)N(C)[C@H](C)C(=O)O[C@@H](CCCCC)C(=O)N(C)[C@H](C)C(=O)O[C@@H](CCCCC)C(=O)OCc1ccccc1 (stereo in doubt) , LogPapp reported as -5.55

Entry CCCCC[C@@H]1OC(=O)[C@@H](C)N(C)C(=O)[C@H](CCCCC)OC(=O)[C@@H](C)N(C)C1=O , LogPapp reported as -5.30

----------
# System: PAMPA
# Condition Label: Papp (x 10^-6 cm/s) – ELSD Detection / [row 16]; ELSD Detection
Measured Endpoint: Papp (×10⁻⁶ cm/s)
Provide only the numeric value, understood in ×10⁻⁶ cm/s.

Entry CCCCC[C@@H]1OC(=O)[C@@H](C)N(C)C(=O)[C@H](CCCCC)OC(=O)[C@@H](C)N(C)C(=O)[C@H](CCCCC)OC(=O)[C@@H](C)N(C)C(=O)[C@H](CCCCC)OC(=O)[C@@H](C)N(C)C1=O [Compound C1.4, ent-verticilide] , Papp reported as 5.98

----------
# Test system: PAMPA
# Condition Label: Papp (x 10^-6 cm/s) / [row 9]; UV detection
Starred links: 1 amine or outer side, 2 acyl side, 3 side chain; linkers in the order of their positions; H or OH if unused. Non-standard residues stand in square brackets, D forms with d. Residues, ends and D or L forms follow the SMILES beside them. *: point of attachment. X1 = CCCCC[C@H](O[*:1])C(=O)[*:2]; Ahp(2) = CCCCC[C@H](N)C(=O)O; dNMeA = CN[C@H](C)C(=O)O; Boc = CC(C)(C)OC(=O)*; OBn = c1ccc(CO*)cc1
Measured Endpoint: Papp (×10⁻⁶ cm/s)
Provide only the numeric value, understood in ×10⁻⁶ cm/s.

Entry CCCCC[C@H](NC(=O)[C@@H](C)N(C)C(=O)[C@H](CCCCC)OC(=O)[C@@H](C)N(C)C(=O)[C@H](CCCCC)NC(=O)[C@@H](C)N(C)C(=O)[C@H](CCCCC)OC(=O)[C@@H](C)N(C)C(=O)OC(C)(C)C)C(=O)OCc1ccccc1 [Compound L2.3] (Boc-[dNMeA][X1][dNMeA][Ahp(2)][dNMeA][X1][dNMeA][Ahp(2)]-OBn) , Papp reported as 3.14

Entry CCCCC[C@H](NC(=O)[C@@H](C)N(C)C(=O)OC(C)(C)C)C(=O)N(C)[C@H](C)C(=O)N[C@H](CCCCC)C(=O)N(C)[C@H](C)C(=O)O[C@@H](CCCCC)C(=O)N(C)[C@H](C)C(=O)O[C@@H](CCCCC)C(=O)OCc1ccccc1 (stereo in doubt) , Papp reported as 2.9

Entry CCCCC[C@H](NC(=O)[C@@H](C)N(C)C(=O)[C@H](CCCCC)NC(=O)[C@@H](C)N(C)C(=O)[C@H](CCCCC)NC(=O)[C@@H](C)N(C)C(=O)[C@H](CCCCC)NC(=O)[C@@H](C)N(C)C(=O)OC(C)(C)C)C(=O)OCc1ccccc1 [Compound L2.5] (Boc-[dNMeA][Ahp(2)][dNMeA][Ahp(2)][dNMeA][Ahp(2)][dNMeA][Ahp(2)]-OBn) , Papp reported as 2.64

----------
# Tested on: PAMPA
# Condition Label: Acceptor Concentration (uM) / experiment 6; UV detection; initial concentration 500 uM
Note to self: values exactly at 70 µM are satisfied. So Acceptor Concentration at or above 70 µM is satisfied, below is not satisfied.

## Input Assess whether reported Acceptor Concentration for CCCCC[C@H](OC(=O)[C@@H](C)N(C)C(=O)[C@H](CCCCC)OC(=O)[C@@H](C)N(C)C(=O)[C@H](CCCCC)OC(=O)[C@@H](C)N(C)C(=O)[C@H](CCCCC)OC(=O)[C@@H](C)N(C)C(=O)[C@H](CCCCC)OC(=O)[C@@H](C)N(C)C(=O)OC(C)(C)C)C(=O)OCc1ccccc1 sits at 70 µM or higher.
## Output not satisfied

## Input Assess whether reported Acceptor Concentration for CCCCC[C@H](OC(=O)[C@@H](C)N(C)C(=O)[C@H](CCCCC)OC(=O)[C@@H](C)N(C)C(=O)OC(C)(C)C)C(=O)OCc1ccccc1 sits at 70 µM or higher.
## Output satisfied

## Input Assess whether reported Acceptor Concentration for CCCCC[C@H](OC(=O)[C@@H](C)N(C)C(=O)OC(C)(C)C)C(=O)OCc1ccccc1 sits at 70 µM or higher.
## Output satisfied

## Input Assess whether reported Acceptor Concentration for CCCCC[C@H](OC(=O)[C@@H](C)N(C)C(=O)[C@H](CCCCC)OC(=O)[C@@H](C)N(C)C(=O)[C@H](CCCCC)OC(=O)[C@@H](C)N(C)C(=O)[C@H](CCCCC)OC(=O)[C@@H](C)N(C)C(=O)OC(C)(C)C)C(=O)OCc1ccccc1 sits at 70 µM or higher.
## Output not satisfied

----------
# System: PAMPA
# Condition Label: Papp (x 10^-6 cm/s) – UV Detection / [row 14]; UV Detection
Measured Endpoint: Papp (×10⁻⁶ cm/s)
Provide only the numeric value, understood in ×10⁻⁶ cm/s.

Entry CCCCC[C@@H]1OC(=O)[C@@H](C)N(C)C(=O)[C@H](CCCCC)OC(=O)[C@@H](C)N(C)C(=O)[C@H](CCCCC)OC(=O)[C@@H](C)N(C)C(=O)[C@H](CCCCC)OC(=O)[C@@H](C)N(C)C1=O [Compound C1.4, ent-verticilide] , PAMPA data, Papp value: 3.79

Entry CCCCC[C@@H]1OC(=O)[C@@H](C)N(C)C(=O)[C@H](CCCCC)OC(=O)[C@@H](C)N(C)C(=O)[C@H](CCCCC)OC(=O)[C@@H](C)N(C)C1=O [Compound C1.3, ent-verticilide B1] , PAMPA data, Papp value: 3.81

----------
# System: PAMPA
# Condition Label: Papp (x 10^-6 cm/s) / experiment 2; UV detection
Note to self: values exactly at 2 ×10⁻⁶ cm/s are Y. So Papp at or above 2 ×10⁻⁶ cm/s is Y, below is N.

## Input Assess whether reported Papp for CCCCC[C@H](OC(=O)[C@@H](C)N(C)C(=O)[C@H](CCCCC)OC(=O)[C@@H](C)N(C)C(=O)[C@H](CCCCC)OC(=O)[C@@H](C)N(C)C(=O)[C@H](CCCCC)OC(=O)[C@@H](C)N(C)C(=O)[C@H](CCCCC)OC(=O)[C@@H](C)N(C)C(=O)[C@H](CCCCC)OC(=O)[C@@H](C)N(C)C(=O)OC(C)(C)C)C(=O)OCc1ccccc1 sits at 2 ×10⁻⁶ cm/s or higher.
## Output N

## Input Assess whether reported Papp for CCCCC[C@H](OC(=O)[C@@H](C)N(C)C(=O)[C@H](CCCCC)OC(=O)[C@@H](C)N(C)C(=O)[C@H](CCCCC)OC(=O)[C@@H](C)N(C)C(=O)[C@H](CCCCC)OC(=O)[C@@H](C)N(C)C(=O)[C@H](CCCCC)OC(=O)[C@@H](C)N(C)C(=O)OC(C)(C)C)C(=O)OCc1ccccc1 sits at 2 ×10⁻⁶ cm/s or higher.
## Output N

## Input Assess whether reported Papp for CCCCC[C@H](OC(=O)[C@@H](C)N(C)C(=O)OC(C)(C)C)C(=O)OCc1ccccc1 sits at 2 ×10⁻⁶ cm/s or higher.
## Output Y

## Input Assess whether reported Papp for CCCCC[C@H](OC(=O)[C@@H](C)N(C)C(=O)[C@H](CCCCC)OC(=O)[C@@H](C)N(C)C(=O)OC(C)(C)C)C(=O)OCc1ccccc1 sits at 2 ×10⁻⁶ cm/s or higher.
## Output Y

## Input Assess whether reported Papp for CCCCC[C@H](OC(=O)[C@@H](C)N(C)C(=O)[C@H](CCCCC)OC(=O)[C@@H](C)N(C)C(=O)[C@H](CCCCC)OC(=O)[C@@H](C)N(C)C(=O)OC(C)(C)C)C(=O)OCc1ccccc1 sits at 2 ×10⁻⁶ cm/s or higher.
## Output Y
